system: WM1552C (Melanoma); experiment: combination Emax (second highest fraction inhibited in the dose matrix, 72 h); higher = more inhibition; extreme values may be limits of the assay
So I've got a bunch of compounds here, and I need their combination Emax values.
Provide a numeric answer; units are not to be included.

Task: For the compound CN(CCO)CC[C@H](CSc1ccccc1)Nc1ccc(S(=O)(=O)NC(=O)c2ccc(N3CCC([C@@H](O)c4ccccc4-c4ccc(Cl)cc4)CC3)cc2)cc1S(=O)(=O)C(F)(F)F [AZD4320] + Cn1cnc2c(F)c(Nc3ccc(Br)cc3Cl)c(C(=O)NOCCO)cc21 [Selumetinib] (first compound max 1 µM, 7x7, partner max 3 µM) , give its measured combination Emax value.
Result: 0.558

Task: Retrieve combination Emax measured for CC1(C)CCC(CN2CCN(c3ccc(C(=O)NS(=O)(=O)c4ccc(NCC5CCOCC5)c([N+](=O)[O-])c4)c(Oc4cnc5[nH]ccc5c4)c3)CC2)=C(c2ccc(Cl)cc2)C1 [Venetoclax] + CN(C)CCCOc1ccc(-c2ccc3ncc4c(c3c2)n(C2CCOCC2)c(=O)n4C)cn1 [AZD0156] (first compound max 1 µM, 7x7, partner max 1 µM) and print it.
Result: 0.562

Task: Return reported combination Emax. Input compound: CC(=O)c1c(C)c2cnc(Nc3ccc(N4CCNCC4)cn3)nc2n(C2CCCC2)c1=O [Palbociclib] + Cc1c2c(nn1C)CSCc1cc(n(C)n1)CSc1cc(c3ccccc3c1)OCCCc1c(C(=O)O)n(C)c3c-2c(Cl)ccc13 [AZD5991] (first compound max 10 µM, 7x7, partner max 1 µM)
Result: 0.638

====

Kindly state Bliss excess for each of the entries shown.
tested on: DU-4475 (Breast Carcinoma); assay: Bliss excess, mean over the matrix (fraction); higher = more synergy;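 further: after 72 h of two-drug dosing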
Answer using only a numeral; do not append any unit.

Task: Note Bliss excess for the compound shown: Cc1c2c(nn1C)CSCc1cc(n(C)n1)CSc1cc(c3ccccc3c1)OCCCc1c(C(=O)O)n(C)c3c-2c(Cl)ccc13 [AZD5991] + Cn1cnc2c(F)c(Nc3ccc(Br)cc3Cl)c(C(=O)NOCCO)cc21 [Selumetinib] (first compound max 1 µM, 7x7, partner max 3 µM)
Result: -0.0018

Task: # return recorded Bliss excess for entry CN(CCO)CC[C@H](CSc1ccccc1)Nc1ccc(S(=O)(=O)NC(=O)c2ccc(N3CCC([C@@H](O)c4ccccc4-c4ccc(Cl)cc4)CC3)cc2)cc1S(=O)(=O)C(F)(F)F [AZD4320] + C[C@@H](Nc1cc(F)cc(F)c1)c1cc(C(=O)N(C)C)cc2c(=O)cc(N3CCOCC3)oc12 [AZD8186] (first compound max 1 µM, 7x7, partner max 3 µM)
Result: 0.0131

Task: Consider the compound Cc1c2c(nn1C)CSCc1cc(n(C)n1)CSc1cc(c3ccccc3c1)OCCCc1c(C(=O)O)n(C)c3c-2c(Cl)ccc13 [AZD5991] + Cc1cc2ncnn2cc1Nc1ncc2c(n1)n(C1CCOCC1)c(=O)n2C [AZD7648] (first compound max 1 µM, 7x7, partner max 10 µM) and give its recorded Bliss excess.
Result: 0.0811

====

system: HT55 (Colorectal Carcinoma); test: combination Emax (second highest fraction inhibited in the dose matrix, 72 h); higher = more inhibition; extreme values may be limits of the assay
ATTRIBUTE MEASURED: combination Emax
Respond numerically, and do not add a unit to the figure.

Task: Please give the documented combination Emax of COc1nnc2ccc(N3CCC(c4ccc(OCCN5CCN(C)C(=O)[C@H]5C)cc4)CC3)nn12 [AZD5153] + CCN(CCO)CCCOc1ccc2c(Nc3cc(CC(=O)Nc4cccc(F)c4)[nH]n3)ncnc2c1 [AZD2811] (first compound max 1 µM, 7x7, partner max 1 µM)
Result: 0.619

Task: Annotate the compound Cc1cc2ncnn2cc1Nc1ncc2c(n1)n(C1CCOCC1)c(=O)n2C [AZD7648] + CN(C)CCCOc1ccc(-c2ccc3ncc4c(c3c2)n(C2CCOCC2)c(=O)n4C)cn1 [AZD0156] (first compound max 10 µM, 7x7, partner max 1 µM) with its measured combination Emax.
Result: 0.169

Task: For the compound Cc1c2c(nn1C)CSCc1cc(n(C)n1)CSc1cc(c3ccccc3c1)OCCCc1c(C(=O)O)n(C)c3c-2c(Cl)ccc13 [AZD5991] + Cn1cnc2c(F)c(Nc3ccc(Br)cc3Cl)c(C(=O)NOCCO)cc21 [Selumetinib] (first compound max 1 µM, 7x7, partner max 3 µM) , give its reported combination Emax.
Result: 0.692

Task: Give reported combination Emax value for NC1(C(=O)N[C@@H](CCO)c2ccc(Cl)cc2)CCN(c2ncnc3[nH]ccc23)CC1 [Capivasertib] + C[C@@H]1COCCN1C2=NC(=NC(=C2)C3(CC3)[S@](=N)(=O)C)C4=C5C=CNC5=NC=C4 [AZD6738] (first compound max 10 µM, 7x7, partner max 10 µM)
Result: 0.545

====

system: OACp4C (Esophageal Adenocarcinoma); assay: combination Emax (second highest fraction inhibited in the dose matrix, 72 h); higher = more inhibition; extreme values may be limits of the assay
Would you mind telling me the reported combination Emax of each entry?
Just the number, please, no unit after it.

Task: Tell us which combination Emax value is on record for Cc1c2c(nn1C)CSCc1cc(n(C)n1)CSc1cc(c3ccccc3c1)OCCCc1c(C(=O)O)n(C)c3c-2c(Cl)ccc13 [AZD5991] + C1CN(CCC1(C(=O)N[C@@H](CCO)C2=CC=C(C=C2)Cl)N)C3=NC=NC4=C3C=CN4 [Capivasertib] (first compound max 1 µM, 7x7, partner max 3 µM)
Result: 0.783

Task: Specify combination Emax for C[C@@H](c1ccc2nccn2c1)n1nnc2ncc(-c3cnn(C)c3)nc21 [Savolitinib] + Cc1c2c(nn1C)CSCc1cc(n(C)n1)CSc1cc(c3ccccc3c1)OCCCc1c(C(=O)O)n(C)c3c-2c(Cl)ccc13 [AZD5991] (first compound max 1 µM, 7x7, partner max 1 µM) and stop.
Result: 0.283

Task: Determine its reported combination Emax: CC1(C)CCC(CN2CCN(c3ccc(C(=O)NS(=O)(=O)c4ccc(NCC5CCOCC5)c([N+](=O)[O-])c4)c(Oc4cnc5[nH]ccc5c4)c3)CC2)=C(c2ccc(Cl)cc2)C1 [Venetoclax] + C[C@@H](Nc1cc(F)cc(F)c1)c1cc(C(=O)N(C)C)cc2c(=O)cc(N3CCOCC3)oc12 [AZD8186] (first compound max 1 µM, 7x7, partner max 3 µM)
Result: 0.31

Task: Assign combination Emax to the following record: NC1(C(=O)N[C@@H](CCO)c2ccc(Cl)cc2)CCN(c2ncnc3[nH]ccc23)CC1 [Capivasertib] + CCN(CCO)CCCOc1ccc2c(Nc3cc(CC(=O)Nc4cccc(F)c4)[nH]n3)ncnc2c1 [AZD2811] (first compound max 10 µM, 7x7, partner max 1 µM)
Result: 0.897

Task: Provide one value: measured combination Emax of COc1nnc2ccc(N3CCC(c4ccc(OCCN5CCN(C)C(=O)[C@H]5C)cc4)CC3)nn12 [AZD5153] + Cc1c2c(nn1C)CSCc1cc(n(C)n1)CSc1cc(c3ccccc3c1)OCCCc1c(C(=O)O)n(C)c3c-2c(Cl)ccc13 [AZD5991] (first compound max 1 µM, 7x7, partner max 1 µM)
Result: 0.789

Task: Indicate its recorded combination Emax; the compound in question is COc1cc2c(cc1OCCCCCOc1cc3c(cc1OC)C(=O)N1C=C(C)C[C@H]1C=N3)N=C[C@@H]1CC(C)=CN1C2=O [SG3199] + O=C(c1cc(Cc2n[nH]c(=O)c3ccccc23)ccc1F)N1CCN(C(=O)C2CC2)CC1 [Olaparib] (first compound max 0.001 µM, 7x7, partner max 10 µM)
Result: 0.136

Task: Quick one: give measured combination Emax for CCN(CCO)CCCOc1ccc2c(Nc3cc(CC(=O)Nc4cccc(F)c4)[nH]n3)ncnc2c1 [AZD2811] + C[C@@H]1COCCN1C2=NC(=NC(=C2)C3(CC3)[S@](=N)(=O)C)C4=C5C=CNC5=NC=C4 [AZD6738] (first compound max 1 µM, 7x7, partner max 10 µM)
Result: 0.733

Task: Consider the compound CC(=O)c1c(C)c2cnc(Nc3ccc(N4CCNCC4)cn3)nc2n(C2CCCC2)c1=O [Palbociclib] + Cn1cnc2c(F)c(Nc3ccc(Br)cc3Cl)c(C(=O)NOCCO)cc21 [Selumetinib] (first compound max 10 µM, 7x7, partner max 10 µM) . State its measured combination Emax.
Result: 0.557

====

test system: EPLC-272H (Other Solid Carcinomas); assay: combination Emax (second highest fraction inhibited in the dose matrix, 72 h); higher = more inhibition; extreme values may be limits of the assay
ATTRIBUTE MEASURED: combination Emax
Output spec: single numeric token, no unit.

Task: Output measured combination Emax for this item: CC(=O)c1c(C)c2cnc(Nc3ccc(N4CCNCC4)cn3)nc2n(C2CCCC2)c1=O [Palbociclib] + Cc1c2c(nn1C)CSCc1cc(n(C)n1)CSc1cc(c3ccccc3c1)OCCCc1c(C(=O)O)n(C)c3c-2c(Cl)ccc13 [AZD5991] (first compound max 10 µM, 7x7, partner max 1 µM)
Result: 0.822

Task: # return recorded combination Emax for input CN(CCO)CC[C@H](CSc1ccccc1)Nc1ccc(S(=O)(=O)NC(=O)c2ccc(N3CCC([C@@H](O)c4ccccc4-c4ccc(Cl)cc4)CC3)cc2)cc1S(=O)(=O)C(F)(F)F [AZD4320] + Cn1cnc2c(F)c(Nc3ccc(Br)cc3Cl)c(C(=O)NOCCO)cc21 [Selumetinib] (first compound max 1 µM, 7x7, partner max 3 µM)
Result: 0.562

Task: Provide one value: measured combination Emax of CC1(C)CCC(CN2CCN(c3ccc(C(=O)NS(=O)(=O)c4ccc(NCC5CCOCC5)c([N+](=O)[O-])c4)c(Oc4cnc5[nH]ccc5c4)c3)CC2)=C(c2ccc(Cl)cc2)C1 [Venetoclax] + C=CCn1c(=O)c2cnc(Nc3ccc(N4CCN(C)CC4)cc3)nc2n1-c1cccc(C(C)(C)O)n1 [AZD1775] (first compound max 1 µM, partner max 1 µM)
Result: 0.761

Task: Give combination Emax for the following molecule: CN(C)CCCOc1ccc(-c2ccc3ncc4c(c3c2)n(C2CCOCC2)c(=O)n4C)cn1 [AZD0156] + CCN(CCO)CCCOc1ccc2c(Nc3cc(CC(=O)Nc4cccc(F)c4)[nH]n3)ncnc2c1 [AZD2811] (first compound max 1 µM, 7x7, partner max 1 µM)
Result: 0.415

Task: // Input: CC(=O)c1c(C)c2cnc(Nc3ccc(N4CCNCC4)cn3)nc2n(C2CCCC2)c1=O [Palbociclib] + Cn1cnc2c(F)c(Nc3ccc(Br)cc3Cl)c(C(=O)NOCCO)cc21 [Selumetinib] (first compound max 10 µM, 7x7, partner max 10 µM) . Output its combination Emax only.
Result: 0.7

Task: Identify measured combination Emax associated with CN(CCO)CC[C@H](CSc1ccccc1)Nc1ccc(S(=O)(=O)NC(=O)c2ccc(N3CCC([C@@H](O)c4ccccc4-c4ccc(Cl)cc4)CC3)cc2)cc1S(=O)(=O)C(F)(F)F [AZD4320] + CCN(CCO)CCCOc1ccc2c(Nc3cc(CC(=O)Nc4cccc(F)c4)[nH]n3)ncnc2c1 [AZD2811] (first compound max 1 µM, 7x7, partner max 1 µM)
Result: 0.635

Task: Item CC1(C)CCC(CN2CCN(c3ccc(C(=O)NS(=O)(=O)c4ccc(NCC5CCOCC5)c([N+](=O)[O-])c4)c(Oc4cnc5[nH]ccc5c4)c3)CC2)=C(c2ccc(Cl)cc2)C1 [Venetoclax] + COc1cc(Nc2ncc3c(n2)-c2ccc(Cl)cc2C(c2c(F)cccc2OC)=NC3)ccc1C(=O)O [Alisertib] (first compound max 1 µM, 7x7, partner max 10 µM) : provide combination Emax
Result: 0.514

Task: Please give the documented combination Emax of COc1cc2c(cc1OCCCCCOc1cc3c(cc1OC)C(=O)N1C=C(C)C[C@H]1C=N3)N=C[C@@H]1CC(C)=CN1C2=O [SG3199] + O=C(c1cc(Cc2n[nH]c(=O)c3ccccc23)ccc1F)N1CCN(C(=O)C2CC2)CC1 [Olaparib] (first compound max 0.001 µM, 7x7, partner max 10 µM)
Result: 0.123

Task: Give me measured combination Emax, please, for this molecule: Cc1c2c(nn1C)CSCc1cc(n(C)n1)CSc1cc(c3ccccc3c1)OCCCc1c(C(=O)O)n(C)c3c-2c(Cl)ccc13 [AZD5991] + CCN(CCO)CCCOc1ccc2c(Nc3cc(CC(=O)Nc4cccc(F)c4)[nH]n3)ncnc2c1 [AZD2811] (first compound max 1 µM, 7x7, partner max 1 µM)
Result: 0.945

Task: Return reported combination Emax. Input molecule: COc1cc2ncnc(Nc3ccc(F)c(Cl)c3)c2cc1OCCCN1CCOCC1 [Gefitinib] + CC(C)n1c(=O)n(C)c2cnc3cc(F)c(-c4ccc(OCCCN5CCCCC5)nc4)cc3c21 [AZD1390] (first compound max 10 µM, 7x7, partner max 0.3 µM)
Result: 0.565

Task: Output measured combination Emax for this item: CCN(CCO)CCCOc1ccc2c(Nc3cc(CC(=O)Nc4cccc(F)c4)[nH]n3)ncnc2c1 [AZD2811] + C=CCn1c(=O)c2cnc(Nc3ccc(N4CCN(C)CC4)cc3)nc2n1-c1cccc(C(C)(C)O)n1 [AZD1775] (first compound max 1 µM, partner max 1 µM)
Result: 0.803

Task: Using the record for CCc1c2c(nc3ccc(O)cc13)-c1cc3c(c(=O)n1C2)COC(=O)[C@]3(O)CC [SN-38] + CN(C)CCCOc1ccc(-c2ccc3ncc4c(c3c2)n(C2CCOCC2)c(=O)n4C)cn1 [AZD0156] (first compound max 0.3 µM, 7x7, partner max 1 µM) , state its measured combination Emax.
Result: 0.755

Task: Note combination Emax for the molecule shown: CC1(C)CCC(CN2CCN(c3ccc(C(=O)NS(=O)(=O)c4ccc(NCC5CCOCC5)c([N+](=O)[O-])c4)c(Oc4cnc5[nH]ccc5c4)c3)CC2)=C(c2ccc(Cl)cc2)C1 [Venetoclax] + C[C@@H](Nc1cc(F)cc(F)c1)c1cc(C(=O)N(C)C)cc2c(=O)cc(N3CCOCC3)oc12 [AZD8186] (first compound max 1 µM, 7x7, partner max 3 µM)
Result: 0.419
